B1: Twister Ribozyme (parent)
chain: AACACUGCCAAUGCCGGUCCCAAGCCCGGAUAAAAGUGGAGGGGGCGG

variants of: B1; assay: self-cleavage, relative activity (ratio to wild type); higher = more cleavage; co-transcriptional
Each entry gets false (0) if its self-cleavage stays under 0.3, and true (1) if its self-cleavage is 0.3 or above.

>>> print(df.to_string())
   variant_string  discrete_label
0        C5G U37A        true (1)
1       C26U U31G        true (1)
2        C3U U18G       false (0)
3       G16C A30G        true (1)
4       G24C G45C       false (0)

Kindly determine if self-cleavage recorded for A35C A40C is above or exactly 0.3.
false (0)

Kindly determine if self-cleavage recorded for C5A G42U is above or exactly 0.3.
false (0)

Kindly determine if self-cleavage recorded for C9A G38C is above or exactly 0.3.
true (1)

Kindly determine if self-cleavage recorded for C3G G45C is above or exactly 0.3.
false (0)

Kindly determine if self-cleavage recorded for U12G G24C is above or exactly 0.3.
false (0)

Kindly determine if self-cleavage recorded for A10C G42A is above or exactly 0.3.
true (1)

Kindly determine if self-cleavage recorded for G13A G16A is above or exactly 0.3.
true (1)

Kindly determine if self-cleavage recorded for C25A A40C is above or exactly 0.3.
false (0)
